# SYSTEM: H1047R PIK3CA enzyme (Homo sapiens, UniProt P42336, H1047R)
# Sequence (P42336 whole entry H1047R): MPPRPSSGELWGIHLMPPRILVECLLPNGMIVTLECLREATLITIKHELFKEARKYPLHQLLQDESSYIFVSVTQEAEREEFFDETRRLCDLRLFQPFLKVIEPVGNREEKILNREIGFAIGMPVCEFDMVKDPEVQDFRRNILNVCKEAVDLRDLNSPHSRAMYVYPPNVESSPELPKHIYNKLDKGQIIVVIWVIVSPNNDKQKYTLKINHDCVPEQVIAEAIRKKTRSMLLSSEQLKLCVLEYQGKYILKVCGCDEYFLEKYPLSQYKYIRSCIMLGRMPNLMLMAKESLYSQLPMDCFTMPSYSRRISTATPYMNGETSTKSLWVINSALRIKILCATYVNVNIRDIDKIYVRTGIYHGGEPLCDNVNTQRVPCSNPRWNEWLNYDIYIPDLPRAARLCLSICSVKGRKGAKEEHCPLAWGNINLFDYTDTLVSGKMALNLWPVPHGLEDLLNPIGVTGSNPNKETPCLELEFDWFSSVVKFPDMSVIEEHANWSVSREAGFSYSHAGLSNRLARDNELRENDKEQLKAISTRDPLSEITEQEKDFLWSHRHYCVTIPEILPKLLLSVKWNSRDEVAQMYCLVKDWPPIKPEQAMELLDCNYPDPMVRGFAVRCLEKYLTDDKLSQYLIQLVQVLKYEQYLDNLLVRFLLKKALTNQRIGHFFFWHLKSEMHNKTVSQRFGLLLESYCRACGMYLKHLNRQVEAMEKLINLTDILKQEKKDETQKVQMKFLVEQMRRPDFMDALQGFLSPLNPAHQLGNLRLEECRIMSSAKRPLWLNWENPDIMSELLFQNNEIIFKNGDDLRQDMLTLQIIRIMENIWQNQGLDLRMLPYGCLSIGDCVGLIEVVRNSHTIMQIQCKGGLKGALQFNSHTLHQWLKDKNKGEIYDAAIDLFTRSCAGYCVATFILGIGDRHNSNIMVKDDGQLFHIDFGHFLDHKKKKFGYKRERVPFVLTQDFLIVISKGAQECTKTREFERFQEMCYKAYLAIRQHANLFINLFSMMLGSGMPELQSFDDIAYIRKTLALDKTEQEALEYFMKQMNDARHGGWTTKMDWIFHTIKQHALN
# Sequence (P27986 whole entry partner): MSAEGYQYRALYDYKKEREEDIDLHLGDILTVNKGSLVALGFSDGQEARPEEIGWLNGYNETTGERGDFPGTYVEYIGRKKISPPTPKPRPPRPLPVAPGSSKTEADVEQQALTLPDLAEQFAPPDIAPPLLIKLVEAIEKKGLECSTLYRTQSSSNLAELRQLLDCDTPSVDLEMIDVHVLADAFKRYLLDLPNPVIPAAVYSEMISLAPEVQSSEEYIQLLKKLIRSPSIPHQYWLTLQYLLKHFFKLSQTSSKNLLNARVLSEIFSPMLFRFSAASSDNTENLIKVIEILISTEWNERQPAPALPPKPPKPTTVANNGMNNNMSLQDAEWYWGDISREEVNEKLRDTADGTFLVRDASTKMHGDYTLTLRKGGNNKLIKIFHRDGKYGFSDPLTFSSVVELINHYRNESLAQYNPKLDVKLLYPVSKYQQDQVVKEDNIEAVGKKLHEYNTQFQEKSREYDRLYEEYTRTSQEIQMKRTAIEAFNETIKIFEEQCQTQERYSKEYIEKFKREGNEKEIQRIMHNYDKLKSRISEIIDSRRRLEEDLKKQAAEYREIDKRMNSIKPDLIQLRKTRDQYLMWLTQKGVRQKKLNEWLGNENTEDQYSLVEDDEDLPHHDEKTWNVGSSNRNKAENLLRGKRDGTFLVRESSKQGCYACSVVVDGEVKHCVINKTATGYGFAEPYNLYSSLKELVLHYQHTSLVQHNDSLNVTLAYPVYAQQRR
# MEASUREMENT_DESCRIPTION: ADP-Glo Biochemical PIK3CA Kinase Assay

{"COMPOUND": "O=C(Nc1cc(B(O)O)cc2c1C(c1cc(F)ccc1Cl)NC2=O)c1cc(F)cc(C(F)(F)F)c1 (stereo not shown)", "IC50": "≤ 0.1 µM"}
{"COMPOUND": "Nc1cc(NC(=O)N2C[C@@H](O)c3ccccc32)c2c(c1)C(=O)N[C@@H]2c1cc(F)ccc1Cl (single isomer, unassigned)", "IC50": "1 to 10 µM"}
{"COMPOUND": "O=C1NC(c2ccccc2Cl)c2c(NC(=O)c3coc4c(F)cc(F)cc34)ccnc21 (stereo not shown)", "IC50": "0.5 to 1 µM"}
{"COMPOUND": "O=C1NC(c2cccc(F)c2F)c2c(NC(=O)c3csc4ccccc34)ccnc21 (stereo not shown)", "IC50": "0.1 to 0.5 µM"}
{"COMPOUND": "O=C(Nc1cc(-c2ccn3nccc3c2)cc2c1C(c1cc(F)ccc1Cl)NC2=O)c1cc(F)cc(C(F)(F)F)c1 (stereo not shown)", "IC50": "≤ 0.1 µM"}
{"COMPOUND": "O=C1N[C@H](c2cc(F)ccc2Cl)c2c(NC(=O)N3C[C@@H](O)c4cc(F)ccc43)cccc21 (single isomer, unassigned)", "IC50": "10 to 100 µM"}
{"COMPOUND": "Cc1cnccc1-c1cc(NC(=O)c2cc(F)cc(C(F)(F)F)c2)c2c(c1)C(=O)N[C@H]2c1cc(F)ccc1Cl (stereo in doubt)", "IC50": "≤ 0.1 µM"}
{"COMPOUND": "O=C1NC(c2cc(F)ccc2Cl)c2c(NC(=O)N3CCCC(F)C3)cc(Br)cc21 (stereo not shown)", "IC50": "10 to 100 µM"}
{"COMPOUND": "N#Cc1cc(NC(=O)N2C[C@@](O)(C(F)(F)F)c3cc(F)ccc32)c2c(c1)C(=O)N[C@H]2c1cc(F)ccc1Cl (single isomer, unassigned)", "IC50": "1 to 10 µM"}
{"COMPOUND": "O=C(Nc1cc(-c2ccn3ncnc3n2)cc2c1C(c1cc(F)ccc1Cl)NC2=O)c1cc(F)cc(C(F)(F)F)c1 (stereo not shown)", "IC50": "≤ 0.1 µM"}
{"COMPOUND": "N[C@@H]1CCC[C@H](C(=O)Nc2cc(-c3ccc4ncnn4c3)cc3c2C(c2cc(F)ccc2Cl)NC3=O)C1 (mixture of isomers)", "IC50": "10 to 100 µM"}
{"COMPOUND": "COc1ncc(-c2cc(NC(=O)c3cc(F)cc(C(F)(F)F)c3)c3c(c2)C(=O)N[C@@H]3c2cc(F)ccc2Cl)cn1", "IC50": "1 to 10 µM"}
{"COMPOUND": "Cc1ccccc1C1NC(=O)c2cccc(NC(=O)c3cc(=O)[nH]c4ccccc34)c21 (stereo not shown)", "IC50": "10 to 100 µM"}

====

# SYSTEM: H1047R PIK3CA enzyme (Homo sapiens, UniProt P42336, H1047R)
# MEASUREMENT_DESCRIPTION: ADP-Glo Biochemical PIK3CA Kinase Assay
pIC50: −log10 of the molar value.
QUANTITY_KIND: pIC50

{"MOLECULE": "CNc1cc(NC(=O)N2C[C@@](O)(C(F)(F)F)c3cc(F)ccc32)c2c(c1C#N)C(=O)N[C@@H]2c1cc(F)ccc1Cl (single isomer, unassigned)", "QUANTITY_KIND": "pIC50", "RECORDED_MEASUREMENT": "5.00 to 6.00"}
{"MOLECULE": "O=C(Nc1cc(-n2cncc2F)cc2c1C(c1cc(F)ccc1Cl)NC2=O)c1cc(F)cc(C(F)(F)F)c1 (stereo not drawn)", "QUANTITY_KIND": "pIC50", "RECORDED_MEASUREMENT": "≥ 7.00"}
{"MOLECULE": "Cc1c(-c2cc(NC(=O)c3cc(F)cc(C(F)(F)F)c3)c3c(c2)C(=O)NC3c2cc(F)ccc2Cl)ccc2ncnn12 (stereo not drawn)", "QUANTITY_KIND": "pIC50", "RECORDED_MEASUREMENT": "≥ 7.00"}
{"MOLECULE": "NC(=O)Cc1cc(NC(=O)c2cc(F)cc(C(F)(F)F)c2)c2c(c1)C(=O)NC2c1cc(F)ccc1Cl (stereo not drawn)", "QUANTITY_KIND": "pIC50", "RECORDED_MEASUREMENT": "≥ 7.00"}
{"MOLECULE": "O=C1N[C@@H](c2cc(F)ccc2Cl)c2c(NC(=O)[C@H]3CCC[C@H](OC(F)(F)F)C3)cccc21 (single isomer, unassigned)", "QUANTITY_KIND": "pIC50", "RECORDED_MEASUREMENT": "4.00 to 5.00"}
{"MOLECULE": "Cn1ccc(-c2cc(NC(=O)c3cc(F)cc(Cl)c3)c3c(n2)C(=O)NC3c2cc(F)ccc2Cl)cc1=O (stereo not drawn)", "QUANTITY_KIND": "pIC50", "RECORDED_MEASUREMENT": "6.30 to 7.00"}
{"MOLECULE": "CC(C)(CN)n1cc(-c2cc(NC(=O)N3C[C@@](O)(C(F)(F)F)c4cc(F)ccc43)c3c(c2)C(=O)N[C@H]3c2cc(F)ccc2Cl)cn1 (single isomer, unassigned)", "QUANTITY_KIND": "pIC50", "RECORDED_MEASUREMENT": "5.00 to 6.00"}
{"MOLECULE": "O=C(Nc1cc(-c2ccn3nccc3n2)cc2c1C(c1cc(F)ccc1Cl)NC2=O)c1cc(F)cc(C(F)(F)F)c1 (stereo not drawn)", "QUANTITY_KIND": "pIC50", "RECORDED_MEASUREMENT": "≥ 7.00"}
{"MOLECULE": "O=C(Nc1cc(-c2cnn(C3CC3)c2)cc2c1C(c1cc(F)ccc1Cl)NC2=O)c1cc(F)cc(C(F)(F)F)c1 (stereo not drawn)", "QUANTITY_KIND": "pIC50", "RECORDED_MEASUREMENT": "≥ 7.00"}
{"MOLECULE": "O=C(Nc1cc(Br)cc2c1C(c1cc(F)ccc1Cl)NC2=O)c1csc(Cl)c1Cl (stereo not drawn)", "QUANTITY_KIND": "pIC50", "RECORDED_MEASUREMENT": "5.00 to 6.00"}
{"MOLECULE": "CN1C(=O)CC[C@H]1COc1cc(NC(=O)c2cc(F)cc(C(F)(F)F)c2)c2c(c1)C(=O)N[C@@H]2c1cc(F)ccc1Cl (single isomer, unassigned)", "QUANTITY_KIND": "pIC50", "RECORDED_MEASUREMENT": "5.00 to 6.00"}
{"MOLECULE": "CCC(=O)Nc1cc(NC(=O)c2cc(F)cc(C(F)(F)F)c2)c2c(c1)C(=O)NC2c1cc(F)ccc1Cl (stereo not drawn)", "QUANTITY_KIND": "pIC50", "RECORDED_MEASUREMENT": "≥ 7.00"}

====

# MEASUREMENT_DESCRIPTION: cells
# SETTINGS: Homo sapiens, MCF-10A, read-out: MCF10A IC50
The following molecules are listed with their measured IC50 values.
QUANTITY_KIND: IC50

{"MOLECULE": "CNc1cc(NC(=O)N2C[C@](O)(C(F)(F)F)c3cc(F)ccc32)c2c(c1C#N)C(=O)N[C@@H]2c1cc(F)ccc1Cl (single isomer, unassigned)", "RECORDED_MEASUREMENT": "< 1000 nM"}
{"MOLECULE": "CC(C#N)c1cc(NC(=O)c2cc(F)cc(C(F)(F)F)c2)c2c(c1)C(=O)N[C@H]2c1cc(F)ccc1Cl (stereo partly shown)", "RECORDED_MEASUREMENT": "< 1000 nM"}
{"MOLECULE": "N#CCOc1cc(NC(=O)c2cc(F)cc(C(F)(F)F)c2)c2c(c1)C(=O)NC2c1cc(F)ccc1Cl (stereo not shown)", "RECORDED_MEASUREMENT": "< 1000 nM"}
{"MOLECULE": "COCc1cc(NC(=O)N2C[C@@](O)(C(F)(F)F)c3cc(F)ccc32)c2c(c1)C(=O)N[C@@H]2c1cc(F)ccc1Cl (single isomer, unassigned)", "RECORDED_MEASUREMENT": "< 1000 nM"}
{"MOLECULE": "O=C1N[C@@H](c2cccc(F)c2F)c2c(NC(=O)c3csc4ccccc34)ccnc21", "RECORDED_MEASUREMENT": "1000 to 5000 nM"}
{"MOLECULE": "NCc1cc(NC(=O)N2CC(O)(C(F)F)c3cc(F)ccc32)c2c(c1)C(=O)NC2c1cc(F)ccc1Cl (stereo not shown)", "RECORDED_MEASUREMENT": "10000 to 36000 nM"}
{"MOLECULE": "O=C(Nc1cc(-c2ccc(=O)n(C3CC3)c2)nc2c1[C@H](c1cc(F)ccc1Cl)NC2=O)c1cc(F)cc(C(F)(F)F)c1", "RECORDED_MEASUREMENT": "< 1000 nM"}
{"MOLECULE": "COc1c(F)cccc1-c1cc(NC(=O)c2cc(F)cc(C(F)(F)F)c2)c2c(c1)C(=O)NC2c1cc(F)ccc1Cl (stereo not shown)", "RECORDED_MEASUREMENT": "< 1000 nM"}
{"MOLECULE": "Cn1cc(-c2cc(NC(=O)c3cc(F)cc(C(F)(F)F)c3)c3c(c2)C(=O)NC3c2cc(F)ccc2C(F)F)cn1 (stereo not shown)", "RECORDED_MEASUREMENT": "< 1000 nM"}
{"MOLECULE": "Cn1cc(Nc2cc(NC(=O)c3cc(F)cc(C(F)(F)F)c3)c3c(c2)C(=O)NC3c2cc(F)ccc2Cl)cn1 (stereo not shown)", "RECORDED_MEASUREMENT": "< 1000 nM"}
{"MOLECULE": "CNc1cc(NC(=O)N2CC(O)(C(F)(F)F)c3cc(F)ccc32)c2c(c1C#N)C(=O)NC2c1cc(F)ccc1Cl (stereo not shown)", "RECORDED_MEASUREMENT": "1000 to 5000 nM"}
{"MOLECULE": "O=C(Nc1cc(-c2cn3ncnc3cn2)cc2c1[C@H](c1cc(F)ccc1C(F)F)NC2=O)c1cc(F)cc(Cl)c1 (single isomer, unassigned)", "RECORDED_MEASUREMENT": "< 1000 nM"}
{"MOLECULE": "O=C1NC(c2cc(F)ccc2Cl)c2c(NC(=O)N3CC(O)c4cc(F)ccc43)cc(-n3cncn3)cc21 (mixture of isomers)", "RECORDED_MEASUREMENT": "10000 to 36000 nM"}
{"MOLECULE": "N#Cc1ncc(-c2cc(NC(=O)c3cc(F)cc(C(F)(F)F)c3)c3c(c2)C(=O)N[C@@H]3c2cc(F)ccc2Cl)cn1", "RECORDED_MEASUREMENT": "< 1000 nM"}
{"MOLECULE": "Cc1ncncc1-c1cc(NC(=O)c2cc(F)cc(C(F)(F)F)c2)c2c(c1)C(=O)NC2c1cc(F)ccc1Cl (stereo not shown)", "RECORDED_MEASUREMENT": "< 1000 nM"}
{"MOLECULE": "O=C(Nc1cc(Nc2ncc[nH]2)cc2c1C(c1cc(F)ccc1Cl)NC2=O)c1cc(F)cc(C(F)(F)F)c1 (stereo not shown)", "RECORDED_MEASUREMENT": "1000 to 5000 nM"}
{"MOLECULE": "O=C(Nc1cc(Nc2cn[nH]c2)cc2c1C(c1cc(F)ccc1Cl)NC2=O)c1cc(F)cc(C(F)(F)F)c1 (stereo not shown)", "RECORDED_MEASUREMENT": "< 1000 nM"}
{"MOLECULE": "Cc1noc(C)c1Nc1cc(NC(=O)c2cc(F)cc(C(F)(F)F)c2)c2c(c1)C(=O)NC2c1cc(F)ccc1Cl (stereo not shown)", "RECORDED_MEASUREMENT": "< 1000 nM"}
{"MOLECULE": "COCc1cc(NC(=O)c2nsc3ccccc23)c2c(c1)C(=O)NC2c1ccccc1C (stereo not shown)", "RECORDED_MEASUREMENT": "5000 to 10000 nM"}
{"MOLECULE": "N#CC1(C(=O)Nc2cc(NC(=O)c3cc(F)cc(C(F)(F)F)c3)c3c(c2)C(=O)NC3c2cc(F)ccc2Cl)CNC1 (stereo not shown)", "RECORDED_MEASUREMENT": "10000 to 36000 nM"}
{"MOLECULE": "O=C1NC(c2cc(F)ccc2Cl)c2c(NC(=O)N3CC(O)(C(F)F)c4ccccc43)cccc21 (mixture of isomers)", "RECORDED_MEASUREMENT": "1000 to 5000 nM"}
{"MOLECULE": "O=C(Nc1cc(-c2ccnc3[nH]ccc23)cc2c1C(c1cc(F)ccc1Cl)NC2=O)c1cc(F)cc(C(F)(F)F)c1 (stereo not shown)", "RECORDED_MEASUREMENT": "< 1000 nM"}
{"MOLECULE": "O=C(Nc1cc(-c2cccc3nonc23)cc2c1C(c1cc(F)ccc1Cl)NC2=O)c1cc(F)cc(C(F)(F)F)c1 (stereo not shown)", "RECORDED_MEASUREMENT": "< 1000 nM"}
{"MOLECULE": "O=C(Nc1cc(-c2nc3cnccc3[nH]2)cc2c1C(c1cc(F)ccc1Cl)NC2=O)c1cc(F)cc(C(F)(F)F)c1 (stereo not shown)", "RECORDED_MEASUREMENT": "1000 to 5000 nM"}
{"MOLECULE": "O=C1N[C@H](c2cc(F)ccc2Cl)c2c(NC(=O)N3C[C@@](O)(C(F)(F)F)c4cc(F)ccc43)cc(-n3nccn3)cc21 (single isomer, unassigned)", "RECORDED_MEASUREMENT": "< 1000 nM"}
